measurement.target: UniProtKB P35563
Sequence (P35563 24-483): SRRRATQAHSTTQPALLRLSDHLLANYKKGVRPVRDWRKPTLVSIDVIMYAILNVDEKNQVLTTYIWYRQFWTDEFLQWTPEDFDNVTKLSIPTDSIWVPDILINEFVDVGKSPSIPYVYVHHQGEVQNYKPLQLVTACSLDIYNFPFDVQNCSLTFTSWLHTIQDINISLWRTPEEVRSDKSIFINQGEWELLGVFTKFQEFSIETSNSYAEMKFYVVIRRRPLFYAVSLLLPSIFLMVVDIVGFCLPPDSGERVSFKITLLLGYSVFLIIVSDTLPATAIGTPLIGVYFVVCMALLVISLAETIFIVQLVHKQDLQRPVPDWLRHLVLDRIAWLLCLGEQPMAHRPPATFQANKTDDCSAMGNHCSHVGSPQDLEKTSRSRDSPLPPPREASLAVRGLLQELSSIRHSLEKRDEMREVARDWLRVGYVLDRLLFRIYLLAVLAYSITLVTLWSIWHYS
outcome.measure: pKi
The quantity pKi is defined as the negative base-10 logarithm of the molar concentration.

Note pKi for the compound shown: COc1cc(N)c(Cl)cc1C(=O)NC[C@@H]1[C@H]2C[C@H]3C[C@@H]1N(C3)C2 (relative stereo)
8.26
